Assay: Plasma stability (mouse)
Format: in vitro ADME
Settings: pooled plasma, mouse plasma, 1 μM, 37° C., read-out: Mouse Plasma T1/2
Protocol: Incubations of test compound (1 μM initial concentration, n=2) were carried out with pooled plasma or BSA (45 mg/mL in 0.1 M phosphate buffered saline pH 7.4). The incubations were performed at 37° C. […] Samples were centrifuged and the supernatant fractions analyzed using LC-MS/MS. […] Half-life values (t1/2) were calculated from the relationship: t1/2 (min)=−0.693/λ where λ was the slope of the Ln concentration versus time curve.
The reader will find reported half-life at 1 μM values listed item by item below.

* C=CC(=O)NCCCC[C@H](NC(=O)OCc1ccccc1)C(=O)N1CCN(c2ccccc2Cl)CC1 | > 24 h

From here, focus on the item given below.
Can you share its half-life at 1 μM? I mean this compound: `C=CC(=O)NCCCC[C@H](NC(=O)Cc1ccccc1)C(=O)N1CCN(c2cccc(C)n2)CC1`
> 8 h
